- Tested on: HCT-116
- assayDetails: Induction of cell death in human HCT-116 cells assessed as chromatin condensation at 0.5 uM incubated for 48 hrs by acridine orange and ethidium bromide staining based fluorescence microscopic analysis
- Type: functional
Active and inactive are the calls of the source. The calls are words filed in the database; no cut-off is given here.
reportedProperty: Activity

Answered cases to consult:
1) O=C(c1cc(Br)ccc1O)c1[nH]c(Br)c(Br)c1Br | inactive
2) O=C(c1cc(Br)ccc1O)c1[nH]c(Br)c(Cl)c1Br | inactive
3) O=C(c1cc(Br)ccc1O)c1[nH]c(Cl)c(Cl)c1Br | inactive
4) O=C(c1cc(Br)cc(Br)c1O)c1[nH]c(Br)c(Br)c1Br | inactive

// switching to the query compound
Exam item: For the compound shown here, O=C(c1cc(Br)ccc1O)c1[nH]c(Cl)c(Br)c1Br , give the reported Activity.
Marked response: inactive

----------
- System: HCT-116
- assayDetails: Induction of morphological changes in human HCT-116 cells assessed as leakage and perforation of cell membranes at 0.5 uM incubated for 48 hrs by scanning electron microscopic analysis
- Format: functional, cell-based
Active and inactive are the calls of the source. No cut-off for these calls is given here.
reportedProperty: Activity

Use these answered entries as a reference point.
1. O=C(c1cc(Br)ccc1O)c1[nH]c(Br)c(Br)c1Br | Active
2. O=C(c1cc(Br)ccc1O)c1[nH]c(Br)c(Cl)c1Br | Active
3. O=C(c1cc(Br)ccc1O)c1[nH]c(Cl)c(Cl)c1Br | Active
4. O=C(c1cc(Br)cc(Br)c1O)c1[nH]c(Br)c(Br)c1Br | Active

Turning now to a further record.
Exam item: # returns recorded Activity (system: HCT-116) for O=C(c1cc(Br)ccc1O)c1[nH]c(Cl)c(Br)c1Br
Marked response: Active

----------
- Test system: MCF7
- assayDetails: Induction of morphological changes in human MCF7 cells assessed as appearance of flattened cells at 1 uM incubated for 48 hrs by inverted phase-contrast microscopic analysis
- Assay type: functional, cell-based
Activity calls are given as the source filed them. The rule behind the calls is not given here.
reportedProperty: Activity

Recorded Activity, per entry:
1) O=C(c1cc(Br)ccc1O)c1[nH]c(Br)c(Cl)c1Br | Active
2) O=C(c1cc(Br)cc(Br)c1O)c1[nH]c(Br)c(Br)c1Br | Active
3) O=C(c1cc(Br)ccc1O)c1[nH]c(Cl)c(Cl)c1Br | Active
4) O=C(c1cc(Br)ccc1O)c1[nH]c(Cl)c(Br)c1Br | Active

Proceeding to the next compound to report its Activity.
Exam item: Bench note: what Activity did O=C(c1cc(Br)ccc1O)c1[nH]c(Br)c(Br)c1Br show?
Marked response: Active

----------
- assayDetails: Selectivity index, ratio of IC50 for hTERT-RPE1 cells to IC50 for human HCT-116 cells
- Type: toxicity
- testSettings: hTERT-RPE1 cells versus HCT-116 cells, read-out: Ratio IC50
# key: entry, value: selectivity ratio

1) O=C(c1cc(Br)ccc1O)c1[nH]c(Cl)c(Br)c1Br | ~100
2) O=C(c1cc(Br)ccc1O)c1[nH]c(Br)c(Br)c1Br | ~100
3) O=C(c1cc(Br)ccc1O)c1[nH]c(Cl)c(Cl)c1Br | ~100

Please look at the following compound next.
Exam item: Record request: selectivity ratio value, item O=C(c1cc(Br)ccc1O)c1[nH]c(Br)c(Cl)c1Br
Marked response: ~100
